Tested on: blood coagulation
Procedure details: PT and aPTT assay in cynomolgus monkeys (Example 45)
Type: in vivo
Test conditions: day −14; escalating dose regimen; platelet poor plasma
Experimental endpoint: PT ratio (INR)
# answer = number (no unit)

According to the records, this substance ISIS 416864: MOE gapmer, nucleobases 1275 to 1318 of SEQ ID NO: 1 (Table 8) (antisense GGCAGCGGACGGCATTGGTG; MOE gapmer, wing and gap sizes not given here) displays PT ratio (INR) of 1.00

Lookup result for ISIS 417002: MOE gapmer, nucleobases 1275 to 1318 of SEQ ID NO: 1 (Table 8) (antisense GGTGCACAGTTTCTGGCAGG; MOE gapmer, wing and gap sizes not given here) ; measured PT ratio (INR): 1.00

// sample ISIS 416858: MOE gapmer, nucleobases 1275 to 1318 of SEQ ID NO: 1 (Table 8) (antisense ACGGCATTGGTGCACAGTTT; MOE gapmer, wing and gap sizes not given here) , its PT ratio (INR) was 1.00

* * *

System: human Factor 11 mRNA
Procedure details: Antisense inhibition of human Factor 11 in HepG2 cells by microwalk gapmers, lipofectin, 75 nM (Example 3)
Type: cell-based
Test conditions: HepG2, lipofectin, ~24 h, gapmers targeted to nucleobases 656 to 704 of SEQ ID NO: 1
Strand notation (5' to 3'): a small letter for the sugar, then the base; units joined by * are phosphorothioate-linked, units joined directly phosphodiester-linked; [ ] holds rarer units or linkages, { } end groups; capitals alone tell only the bases. e = 2'-O-(2-methoxyethyl) (MOE); [5mC] = 5-methylcytosine; d = 2'-deoxy (DNA)
Experimental endpoint: % inhibition (%)
The response must be a number in % with no trailing unit.

Recorded result, 416945 (antisense eA*eA*dT*dG*dT*d[5mC]*dT*dT*dT*dG*dT*dT*dG*d[5mC]*dA*eA*eG*e[5mC]*eG*e[5mC]) [compound 416945] , % inhibition: 94

For 416957 (antisense eT*eA*dG*dG*dT*d[5mC]*d[5mC]*dA*d[5mC]*dA*dT*dA*dA*dA*dT*eG*eT*e[5mC]*eT*eT) [compound 416957] the substance record lists % inhibition as 59

response.value for 416822 (antisense e[5mC]*eT*eT*e[5mC]*eA*dT*dG*dT*d[5mC]*dT*dA*dG*dG*dT*d[5mC]*e[5mC]*eA*e[5mC]*eA*eT) [compound 416822] (field: % inhibition) = 76

Summary for this substance, 416884 (antisense eT*eG*eT*d[5mC]*dT*dA*dG*dG*dT*d[5mC]*d[5mC]*dA*d[5mC]*dA*dT*dA*dA*eA*eT*eG) [compound 416884] : % inhibition is 69

The substance identified as 416824 (antisense e[5mC]*e[5mC]*e[5mC]*eT*eT*d[5mC]*dA*dT*dG*dT*d[5mC]*dT*dA*dG*dG*eT*e[5mC]*e[5mC]*eA*e[5mC]) [compound 416824] registered its % inhibition at 64

// sample 416963 (antisense e[5mC]*eA*dT*dG*dT*d[5mC]*dT*dA*dG*dG*dT*d[5mC]*d[5mC]*dA*d[5mC]*eA*eT*eA*eA*eA) [compound 416963] , its % inhibition was 48

* * *

Procedure details: Hematology assays in cynomolgus monkeys (Example 45)
Format: in vivo
Test conditions: day −5; escalating dose regimen
Experimental endpoint: WBC count (µL⁻¹)
Write it as a number; the unit µL⁻¹ goes unstated.

WBC count in this record for ISIS 416850: MOE gapmer, nucleobases 1275 to 1318 of SEQ ID NO: 1 (Table 8) (antisense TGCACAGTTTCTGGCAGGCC; MOE gapmer, wing and gap sizes not given here) : 13000

The recorded WBC count for ISIS 416838: MOE gapmer, nucleobases 1018 to 1042 of SEQ ID NO: 1 (Table 6) (antisense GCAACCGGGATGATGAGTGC; MOE gapmer, wing and gap sizes not given here) is 12000

Reported WBC count of ISIS 417002: MOE gapmer, nucleobases 1275 to 1318 of SEQ ID NO: 1 (Table 8) (antisense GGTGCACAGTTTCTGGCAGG; MOE gapmer, wing and gap sizes not given here) : 14000

get_value(item= ISIS 416858: MOE gapmer, nucleobases 1275 to 1318 of SEQ ID NO: 1 (Table 8) (antisense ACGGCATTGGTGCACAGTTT; MOE gapmer, wing and gap sizes not given here) , readout=WBC count) returns 14000

# WBC count of ISIS 416864: MOE gapmer, nucleobases 1275 to 1318 of SEQ ID NO: 1 (Table 8) (antisense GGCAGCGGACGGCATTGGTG; MOE gapmer, wing and gap sizes not given here) = 13000

Values were extracted from patent US20230263822A1.
